tested on: E. coli ATCC 25922; assay: MIC broth microdilution; assay type: cell-based; settings: Escherichia coli, ATCC25922; E. coli ATCC 25922; CAMHB; read-out: MIC
value type: MIC

INSERT INTO assay_data (compound, target_or_system, experimental_result) VALUES
  ('CC(C)(O/N=C(\C(=O)N[C@@H]1C(=O)N2C(C(=O)[O-])=C(C[n+]3ccccc3)CS[C@H]12)c1csc(N)n1)C(=O)O [Ceftazidime, reference compound]', 'E. coli ATCC 25922', '0.25 µg/mL'),
  ('C=C(NC(=O)c1csc(C2=N[C@@H]3c4csc(n4)[C@H]4NC(=O)c5csc(n5)[C@H]([C@](C)(O)[C@@H](C)O)NC(=O)C5CSC(=N5)/C(=C/C)NC(=O)[C@H]([C@@H](C)O)NC(=O)c5csc(n5)[C@]3(CC2)NC(=O)[C@H](C)NC(=O)C(=C)NC(=O)[C@H](C)NC(=O)[C@H]([C@@H](C)CC)N[C@@H]2C=Cc3c([C@H](C)O)cc(nc3[C@H]2O)C(=O)O[C@@H]4C)n1)C(=O)NC(=CNC(=O)c1ccc(Cl)cc1)C(N)=O', 'E. coli ATCC 25922', '> 64 µg/mL');

Turning now to a further compound:
Request: Requested read-out MIC, target or system E. coli ATCC 25922, entry C=C(NC(=O)c1csc(C2=N[C@@H]3c4csc(n4)[C@H]4NC(=O)c5csc(n5)[C@H]([C@](C)(O)[C@@H](C)O)NC(=O)C5CSC(=N5)/C(=C/C)NC(=O)[C@H]([C@@H](C)O)NC(=O)c5csc(n5)[C@]3(CC2)NC(=O)[C@H](C)NC(=O)C(=C)NC(=O)[C@H](C)NC(=O)[C@H]([C@@H](C)CC)N[C@@H]2C=Cc3c([C@H](C)O)cc(nc3[C@H]2O)C(=O)O[C@@H]4C)n1)C(=O)NC(=CNC(=O)COC)C(N)=O
Result: > 64 µg/mL

* * *

The following compounds are shown together with reported MIC values.
system: E. faecalis ATCC 29212 VSE; experiment: MIC broth microdilution; format: cell-based; conditions: Enterococcus faecalis, ATCC29212; E. faecalis ATCC 29212 VSE; CAMHB; read-out: MIC
Provide only the numeric value, understood in µg/mL.

INSERT INTO results (compound, experimental_result) VALUES
  ('C=C(NC(=O)c1csc(C2=N[C@@H]3c4csc(n4)[C@H]4NC(=O)c5csc(n5)[C@H]([C@](C)(O)[C@@H](C)O)NC(=O)C5CSC(=N5)/C(=C/C)NC(=O)[C@H]([C@@H](C)O)NC(=O)c5csc(n5)[C@]3(CC2)NC(=O)[C@H](C)NC(=O)C(=C)NC(=O)[C@H](C)NC(=O)[C@H]([C@@H](C)CC)N[C@@H]2C=Cc3c([C@H](C)O)cc(nc3[C@H]2O)C(=O)O[C@@H]4C)n1)C(=O)NC(=CNC(=O)c1cccc(/C=N/OC)c1)C(N)=O [RJS-11]', 0.5);

Request: Quick one: MIC of C=C(NC(=O)c1csc(C2=N[C@@H]3c4csc(n4)[C@H]4NC(=O)c5csc(n5)[C@H]([C@](C)(O)[C@@H](C)O)NC(=O)C5CSC(=N5)/C(=C/C)NC(=O)[C@H]([C@@H](C)O)NC(=O)c5csc(n5)[C@]3(CC2)NC(=O)[C@H](C)NC(=O)C(=C)NC(=O)[C@H](C)NC(=O)[C@H]([C@@H](C)CC)N[C@@H]2C=Cc3c([C@H](C)O)cc(nc3[C@H]2O)C(=O)O[C@@H]4C)n1)C(=O)NC(=CNC(=O)c1cccc(/C=N/O)c1)C(N)=O [RJS-17] ?
Result: 1

Request: // MIC lookup, key: C=C(NC(=O)c1csc(C2=N[C@@H]3c4csc(n4)[C@H]4NC(=O)c5csc(n5)[C@H]([C@](C)(O)[C@@H](C)O)NC(=O)C5CSC(=N5)/C(=C/C)NC(=O)[C@H]([C@@H](C)O)NC(=O)c5csc(n5)[C@]3(CC2)NC(=O)[C@H](C)NC(=O)C(=C)NC(=O)[C@H](C)NC(=O)[C@H]([C@@H](C)CC)N[C@@H]2C=Cc3c([C@H](C)O)cc(nc3[C@H]2O)C(=O)O[C@@H]4C)n1)C(=O)NC(=CNC(=O)c1cccc(C(C)=O)c1)C(N)=O [RJS-05]
Result: 1

Request: Record request: MIC value, item C=C(NC(=O)c1csc(C2=N[C@@H]3c4csc(n4)[C@H]4NC(=O)c5csc(n5)[C@H]([C@](C)(O)[C@@H](C)O)NC(=O)C5CSC(=N5)/C(=C/C)NC(=O)[C@H]([C@@H](C)O)NC(=O)c5csc(n5)[C@]3(CC2)NC(=O)[C@H](C)NC(=O)C(=C)NC(=O)[C@H](C)NC(=O)[C@H]([C@@H](C)CC)N[C@@H]2C=Cc3c([C@H](C)O)cc(nc3[C@H]2O)C(=O)O[C@@H]4C)n1)C(=O)NC(=CNC(=O)c1ccc(Cl)cc1)C(N)=O [RJS-09]
Result: 0.25

* * *

Parameter MIC: see the listing below.
system: S. pyogenes ATCC 19615; experiment: MIC broth microdilution; format: cell-based; conditions: Streptococcus pyogenes, ATCC19615, 20 h; S. pyogenes ATCC 19615; CAMHB with 3% lysed horse blood; read-out: MIC

INSERT INTO measurements (compound, value_type, experimental_result) VALUES
  ('C=C(NC(=O)c1csc(C2=N[C@@H]3c4csc(n4)[C@H]4NC(=O)c5csc(n5)[C@H]([C@](C)(O)[C@@H](C)O)NC(=O)C5CSC(=N5)/C(=C/C)NC(=O)[C@H]([C@@H](C)O)NC(=O)c5csc(n5)[C@]3(CC2)NC(=O)[C@H](C)NC(=O)C(=C)NC(=O)[C@H](C)NC(=O)[C@H]([C@@H](C)CC)N[C@@H]2C=Cc3c([C@H](C)O)cc(nc3[C@H]2O)C(=O)O[C@@H]4C)n1)C(=O)NC(=CNC(=O)c1cccc(/C=N/OC2O[C@H](CO)[C@@H](O)[C@H](O)[C@H]2O)c1)C(N)=O (some centres unmarked)', 'MIC', '250 ng/mL'),
  ('C=C(NC(=O)c1csc(C2=N[C@@H]3c4csc(n4)[C@H]4NC(=O)c5csc(n5)[C@H]([C@](C)(O)[C@@H](C)O)NC(=O)C5CSC(=N5)/C(=C/C)NC(=O)[C@H]([C@@H](C)O)NC(=O)c5csc(n5)[C@]3(CC2)NC(=O)[C@H](C)NC(=O)C(=C)NC(=O)[C@H](C)NC(=O)[C@H]([C@@H](C)CC)N[C@@H]2C=Cc3c([C@H](C)O)cc(nc3[C@H]2O)C(=O)O[C@@H]4C)n1)C(=O)NC(=CNC(=O)c1cccc(C(C)=O)c1)C(N)=O', 'MIC', '4 ng/mL'),
  ('C=C(NC(=O)c1csc(C2=N[C@@H]3c4csc(n4)[C@H]4NC(=O)c5csc(n5)[C@H]([C@](C)(O)[C@@H](C)O)NC(=O)C5CSC(=N5)/C(=C/C)NC(=O)[C@H]([C@@H](C)O)NC(=O)c5csc(n5)[C@]3(CC2)NC(=O)[C@H](C)NC(=O)C(=C)NC(=O)[C@H](C)NC(=O)[C@H]([C@@H](C)CC)N[C@@H]2C=Cc3c([C@H](C)O)cc(nc3[C@H]2O)C(=O)O[C@@H]4C)n1)C(=O)NC(=CNC(=O)C(C)C)C(N)=O', 'MIC', '4 ng/mL'),
  ('C=C(NC(=O)c1csc(C2=N[C@@H]3c4csc(n4)[C@H]4NC(=O)c5csc(n5)[C@H]([C@](C)(O)[C@@H](C)O)NC(=O)C5CSC(=N5)/C(=C/C)NC(=O)[C@H]([C@@H](C)O)NC(=O)c5csc(n5)[C@]3(CC2)NC(=O)[C@H](C)NC(=O)C(=C)NC(=O)[C@H](C)NC(=O)[C@H]([C@@H](C)CC)N[C@@H]2C=Cc3c([C@H](C)O)cc(nc3[C@H]2O)C(=O)O[C@@H]4C)n1)C(=O)NC(=CNC(=O)c1cccc(/C=N/OCCO)c1)C(N)=O', 'MIC', '4 ng/mL');

Request: For the compound shown here, C=C(NC(=O)c1csc(C2=N[C@@H]3c4csc(n4)[C@H]4NC(=O)c5csc(n5)[C@H]([C@](C)(O)[C@@H](C)O)NC(=O)C5CSC(=N5)/C(=C/C)NC(=O)[C@H]([C@@H](C)O)NC(=O)c5csc(n5)[C@]3(CC2)NC(=O)[C@H](C)NC(=O)C(=C)NC(=O)[C@H](C)NC(=O)[C@H]([C@@H](C)CC)N[C@@H]2C=Cc3c([C@H](C)O)cc(nc3[C@H]2O)C(=O)O[C@@H]4C)n1)C(=O)NC(=CNC(=O)COCCOC)C(N)=O , give the reported MIC.
Result: 15 ng/mL
